Target: Amine oxidase [flavin-containing] B (Rattus norvegicus)
Sequence (P19643 whole entry): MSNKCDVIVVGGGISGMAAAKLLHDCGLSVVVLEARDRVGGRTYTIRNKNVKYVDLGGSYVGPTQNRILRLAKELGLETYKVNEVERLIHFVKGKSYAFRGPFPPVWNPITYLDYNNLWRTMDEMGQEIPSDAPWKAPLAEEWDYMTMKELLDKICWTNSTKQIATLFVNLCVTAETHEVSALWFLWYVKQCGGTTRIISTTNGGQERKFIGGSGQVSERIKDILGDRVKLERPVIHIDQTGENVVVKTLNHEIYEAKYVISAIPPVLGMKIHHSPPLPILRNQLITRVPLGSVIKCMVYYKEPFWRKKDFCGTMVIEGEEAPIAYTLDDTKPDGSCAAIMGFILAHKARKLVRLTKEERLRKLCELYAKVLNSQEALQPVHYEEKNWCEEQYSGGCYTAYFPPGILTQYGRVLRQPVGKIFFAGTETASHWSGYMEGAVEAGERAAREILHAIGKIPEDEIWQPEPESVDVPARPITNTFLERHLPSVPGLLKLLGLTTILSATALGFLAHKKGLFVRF
# Lookup of reported IC50 keyed by entry
measurement_kind: IC50 (µM)

> print(dat)
                            compound.smiles  reported.value
1    Clc1ccc(Cc2nc3ccccc3nc2NCCN2CCOCC2)cc1             360
2  Clc1cc2nc(Cc3ccccc3)c(NCCN3CCOCC3)nc2cc1Cl             960
3                 NNc1nc2ccccc2nc1Cc1ccccc1             840
4             NNc1nc2ccccc2nc1Cc1ccc(Cl)cc1             570

---

Tested on: Mus musculus
Assay: Toxicity in mouse upto 125 mg/kg administered by parenteral route
Format: organism-based
Set-up: dose 125 mg/kg
Conditions: in vivo
measurement_kind: Activity

> print(dat)
                            compound.smiles  measurement.target  reported.value
1         NNc1nc2cc(Cl)c(Cl)cc2nc1Cc1ccccc1        Mus musculus       Non-toxic
2  Clc1cc2nc(Cc3ccccc3)c(NCCN3CCOCC3)nc2cc1Cl        Mus musculus       Non-toxic
3               OCCNc1nc2ccccc2nc1Cc1ccccc1        Mus musculus       Non-toxic
4                 NNc1nc2ccccc2nc1Cc1ccccc1        Mus musculus       Non-toxic
5    Clc1ccc(Cc2nc3ccccc3nc2NCCN2CCOCC2)cc1        Mus musculus       Non-toxic
6             NNc1nc2ccccc2nc1Cc1ccc(Cl)cc1        Mus musculus       Non-toxic
7              CNCCNc1nc2ccccc2nc1Cc1ccccc1        Mus musculus       Non-toxic
8      c1ccc(Cc2nc3ccccc3nc2NCCN2CCOCC2)cc1        Mus musculus       Non-toxic

---

# Lookup of reported IC50 keyed by entry
Molecular target: Amine oxidase [flavin-containing] A (Rattus norvegicus, UniProt P21396)
Sequence (P21396 whole entry): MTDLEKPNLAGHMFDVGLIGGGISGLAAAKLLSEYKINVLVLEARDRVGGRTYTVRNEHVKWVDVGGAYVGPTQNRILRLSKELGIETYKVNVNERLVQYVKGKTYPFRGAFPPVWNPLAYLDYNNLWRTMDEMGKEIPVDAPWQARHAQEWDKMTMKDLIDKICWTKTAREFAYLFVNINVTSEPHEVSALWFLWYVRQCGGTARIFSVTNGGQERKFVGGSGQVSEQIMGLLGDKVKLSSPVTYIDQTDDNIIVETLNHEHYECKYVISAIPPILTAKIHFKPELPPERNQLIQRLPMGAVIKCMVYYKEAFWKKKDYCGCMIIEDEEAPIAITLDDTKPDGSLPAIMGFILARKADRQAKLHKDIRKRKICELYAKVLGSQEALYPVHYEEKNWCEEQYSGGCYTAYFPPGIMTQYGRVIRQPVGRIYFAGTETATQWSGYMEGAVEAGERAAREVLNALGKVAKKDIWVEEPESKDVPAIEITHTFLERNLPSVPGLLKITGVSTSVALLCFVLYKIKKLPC
Assay: Inhibition of rat liver mitochondria MAOA
measurement_kind: IC50 (nM)

> print(dat)
                            compound.smiles  measurement.kind  reported.value
1  Clc1cc2nc(Cc3ccccc3)c(NCCN3CCOCC3)nc2cc1Cl              IC50              73
2                 NNc1nc2ccccc2nc1Cc1ccccc1              IC50             8.8
3               OCCNc1nc2ccccc2nc1Cc1ccccc1              IC50             3.7

---

Biological target: Amine oxidase [flavin-containing] A (Rattus norvegicus)
Experiment: Inhibition of rat liver mitochondria MAOA at 100 uM
measurement_kind: inhibition at 100 µM

> print(dat)
                            compound.smiles  reported.value
1  Clc1cc2nc(Cc3ccccc3)c(NCCN3CCOCC3)nc2cc1Cl             40%
2              CNCCNc1nc2ccccc2nc1Cc1ccccc1           40.9%
3             NNc1nc2ccccc2nc1Cc1ccc(Cl)cc1           49.5%
4      c1ccc(Cc2nc3ccccc3nc2NCCN2CCOCC2)cc1           46.1%
5         NNc1nc2cc(Cl)c(Cl)cc2nc1Cc1ccccc1             42%
6                 NNc1nc2ccccc2nc1Cc1ccccc1           54.1%
7    Clc1ccc(Cc2nc3ccccc3nc2NCCN2CCOCC2)cc1           50.5%
8               OCCNc1nc2ccccc2nc1Cc1ccccc1             46%
